Sourced from PubChem BioAssay (NCI)

Consider the following compounds; for each one, report its growth.
Test system: OVCAR-3 ovarian
Assay: NCI-60 one-dose screen, 48 h (100 = growth as untreated, 0 = no growth, -100 = all killed)
Conditions: 10 µM unless noted
About 83,000 compounds went through this panel and 20% of them were active in at least one assay; those are over-represented in the sample as a whole.
Numbers only, in %.

A selection of reference data follows.
Looking up Nc1n[nH]c2cccc(C#Cc3cccc(C(=O)Nc4cc(CN5CCOCC5)cc(C(F)(F)F)c4)c3)c12 , I see its growth listed as 46.7

Looking up O=C1CC(=O)OC(c2ccc([N+](=O)[O-])cc2)O1 , I see its growth listed as -60.6

Parameter requested: growth. Apply to each item below.
1. Cc1ccc(NC(C(=O)c2ccccc2)c2ccccc2)cc1 (stereo unspecified)
2. COc1ccc(NC(=O)c2cc(NCc3cc(O)ccc3O)ccc2O)cc1
3. Nc1nc(Nc2ccccc2SSc2ccccc2Nc2nc(N)nc(-c3ccc(C(F)(F)F)cc3)n2)nc(-c2ccc(C(F)(F)F)cc2)n1
4. N#C/C(=C\c1cccc(C#N)c1)c1ccccc1

[29.4, 84.3, 80.5, 105]

====

Tested on: OVCAR-8 ovarian
Assay: NCI-60 one-dose screen, 48 h (100 = growth as untreated, 0 = no growth, -100 = all killed)
Details: 10 µM unless noted
Compounds without any hit were thinned out: in the full panel of roughly 83,000, 20% have a hit.
Entries get a class label from measured growth. See ranges: low: < 60%; moderate: ≥ 60% and < 90%; high: ≥ 90%

State the band of O=C(C1CCC1)N1N=C(c2ccc(-n3ccc(C(F)(F)F)n3)cc2)CC1c1ccc[nH]1 (stereo not given)
high

State the band of COc1cc(NCCCCCNC(C)(C)C)c2ncccc2c1
high

State the band of c1ccc2cc(Cn3c(-c4cccc5ccccc45)[n+](Cc4ccc5ccccc5c4)c4c5ccccc5c5ccccc5c43)ccc2c1
low

State the band of Oc1ccc(C(c2ccc(O)cc2)c2ccc(Br)cn2)cc1
low

State the band of O=[N+]([O-])c1ccc(NC(=S)N/N=C/c2cc3ccccc3n3nnnc23)cc1
moderate

State the band of CCN(CC)CCn1c(=O)c2cc(OC)c(OC)cc2c2ccc3cc4c(cc3c21)OCO4
low

New cases:
State the band of Cc1nc2sccn2c1-c1cn2ccsc2n1
high

State the band of COc1ccc(C(=O)Nc2cccc(C3CCc4c(cc(OC)c(OC)c4OC)O3)c2)cc1 (stereo not given)
low

State the band of OC(c1cccc(C(F)(F)F)c1)c1cnccc1NC1CCCCC1 (stereo not given)
moderate

State the band of N#C/C(=C\c1ccc(C(F)(F)F)cc1)c1cc2ccccc2[nH]1
high

State the band of CC(Sc1nc2sc3c(c2c(=O)n1-c1ccc(Cl)cc1)CCCC3)C(=O)Nc1nc(-c2ccc(Br)cc2)cs1 (stereo not given)
high

State the band of O=[N+]([O-])c1cc(Br)c2cccc3c2c1CC3
high

State the band of CCN(CC)CCOc1ccc(NC(=O)C(C(C)C)N2C(=O)/C(=C/c3ccc(Br)cc3)SC2=S)cc1 (stereo not given)
low

State the band of N#Cc1c(NC(=O)NCc2ccccc2)sc2c1CCCC2
low

====

Tested on: ACHN renal
Assay: NCI-60 one-dose screen, 48 h (100 = growth as untreated, 0 = no growth, -100 = all killed)
Conditions: 10 µM unless noted
The panel holds about 83,000 compounds, 20% with a hit somewhere; the sample as a whole holds those more often.
Rule: growth below 70% gives 1. Equal to or above 70% gives -1.

Determine whether this molecule shows growth lower than 70% (ties excluded): O=C1Nc2ccccc2/C1=C\c1c(-c2ccccc2)nc2ccccn12
1

Determine whether this molecule shows growth lower than 70% (ties excluded): CCOC(=O)CC1CSC(N/N=C/c2ccc(-n3cccn3)cc2)=N1 (stereo not given)
-1

Determine whether this molecule shows growth lower than 70% (ties excluded): COc1cc2oc(-c3cccc(C(=O)Nc4ccc5c(c4)OCO5)c3)cc(=O)c2c(O)c1OC
-1

Determine whether this molecule shows growth lower than 70% (ties excluded): COc1cc2c(c(OC)c1OC)-c1ccc(NNC(=S)N(Cc3cccc(C[N+](Cc4cccc(CNC56CC7CC(CC(C7)C5)C6)c4)(Cc4cccc(CNC56CC7CC(CC(C7)C5)C6)c4)Cc4cccc(CN(C(=S)NNc5ccc6c(cc5=O)[C@@H](NC(C)=O)CCc5cc(OC)c(OC)c(OC)c5-6)C56CC7CC(CC(C7)C5)C6)c4)c3)C34CC5CC(CC(C5)C3)C4)c(=O)cc1[C@@H](NC(C)=O)CC2 (stereo not given in full)
1

Determine whether this molecule shows growth lower than 70% (ties excluded): Cc1cc(C(=O)/C=C/c2ccc[nH]2)ccc1-n1ccc(C(F)(F)F)n1
-1

Determine whether this molecule shows growth lower than 70% (ties excluded): Cn1ccc2c1CC1CN(Cc3ccco3)C(=O)C1C2C(=O)O (stereo not given)
-1

Determine whether this molecule shows growth lower than 70% (ties excluded): N/C(=N\C(N)=N\c1nc2ccccc2s1)c1ccnc(Br)c1
1

Determine whether this molecule shows growth lower than 70% (ties excluded): CN1CCN(c2ccc(NC3=C(Cl)C(=O)c4ncccc4C3=O)cc2C(F)(F)F)CC1
1

Let us examine a further case.
Determine whether this molecule shows growth lower than 70% (ties excluded): CCOC(=O)c1cc(C(=O)c2ccc(Br)cc2)n2ccc(/C=C/c3cc[n+](CC(=O)c4ccc(OC)cc4)cc3)cc12
-1

====

System: HOP-92 NSCLC
Test: NCI-60 one-dose screen, 48 h
Conditions: 10 µM unless noted
The panel holds about 83,000 compounds, 20% with a hit somewhere; the sample as a whole holds those more often. The source made the active and inactive calls. Rule for the calls: active = growth percent below 10; inactive = the rest.
The categories you may choose from are Y (active), N (inactive)

Worked cases, answers included:
I'd appreciate the recorded outcome for COC(=O)C1=C(C(=O)ON)C2C=CC1(C(Cc1ccccc1)Nc1ccccc1)O2 (stereo not drawn) from this test.
N

I'd appreciate the recorded outcome for CCCCCCCC(=O)OCC/C=C/C1OC1C1OC(=O)/C=C\C=C\C(=O)N(C(C)=O)C(=O)/C=C(/C)CCC2OC2C1OC(=O)NC(C)=O (stereo not drawn) from this test.
N

New cases:
I'd appreciate the recorded outcome for COc1cccc(-c2nc3occn3c2-c2ccnc(NCCNS(=O)(=O)c3ccc(C(F)(F)F)cc3)n2)c1 from this test.
N

====

System: NCI-H460 lung
Experiment: NCI-60 one-dose screen, 48 h (100 = growth as untreated, 0 = no growth, -100 = all killed)
Details: 10 µM unless noted
About 83,000 compounds went through this panel and 20% of them were active in at least one assay; those are over-represented in the sample as a whole.
metric_name: growth (%)
Numbers only, in %.

Looking up Nc1c(S(=O)(=O)O)cc2c3c(cccc13)C(=O)OC2=O , I see its growth listed as 105

Parameter requested: growth. Apply to each item below.
1. CCCN1[C@@H]2CC[C@H]1/C(=C\c1ccc(OC)c(OC)c1)C(=O)/C2=C/c1ccc(OC)c(OC)c1
2. Oc1ccc(C2c3ccccc3Oc3ccccc32)c2cccnc12

[39.6, 2.23]

====

Test system: BT-549 breast
Assay: NCI-60 one-dose screen, 48 h
Settings: 10 µM unless noted
Compounds without any hit were thinned out: in the full panel of roughly 83,000, 20% have a hit. Active and inactive are the calls of the source. Rule for the calls: active = growth percent below 10; inactive = the rest.
The categories you may choose from are Y = active, N = inactive

Worked cases, answers included:
I'd appreciate the recorded outcome for CC(Sc1nc2sc3c(c2c(=O)n1-c1ccc(Cl)cc1)CCCC3)C(=O)Nc1nc(-c2ccc(Br)cc2)cs1 (stereo not drawn) from this test.
N

I'd appreciate the recorded outcome for COc1ccc(-c2nc([C@@H](C)Sc3nc(N)cc(N)n3)c(C)s2)cc1OCCN1CCOCC1 from this test.
N

New cases:
I'd appreciate the recorded outcome for O=C(/C=C/c1ccc[nH]1)c1ccc(-n2ccc(C(F)(F)F)n2)c(F)c1 from this test.
Y

====

Test system: NCI/ADR-RES ovarian
Experiment: NCI-60 one-dose screen, 48 h (100 = growth as untreated, 0 = no growth, -100 = all killed)
Settings: 10 µM unless noted
This is part of a sample that, as a whole, favours compounds with a hit. Of some 83,000 tested, about 20% had one in any assay.
metric_name: growth (%)
Numbers only, in %.

Looking up O=C(O)c1ccc2c(c1)C(=O)N(Cc1ccccc1)C2=O , I see its growth listed as 98

Looking up CCOC(=O)c1cc(C(=O)c2cc(OC)cc(OC)c2)n2ccc3ccccc3c12 , I see its growth listed as 92.8

Looking up CN1[C@@H]2CC[C@H]1/C(=C\c1ccccc1)C(=O)/C2=C/c1ccccc1 , I see its growth listed as 10.7

Looking up COc1ccccc1/C(C)=N/NC(=O)CSc1nc2ccccc2c(=O)n1Cc1ccc(S(N)(=O)=O)cc1 , I see its growth listed as 99.5

Looking up Cc1ccc(S(=O)(=O)Nn2c3c(cc(-c4nc5ccccc5s4)c2=O)CCCCCC3)cc1 , I see its growth listed as 95.8

Parameter requested: growth. Apply to each item below.
1. O=C(Cn1c(C(=O)c2ccccc2)nc2ccccc21)c1ccc(F)cc1
2. CC1=C(C(=O)/C=C/c2c[nH]c3ccccc23)C(c2ccccc2)NC(=S)N1 (centres undefined)
3. CC(=O)N1N=C(c2ccc(-n3ccc(C(F)(F)F)n3)c(F)c2)CC1c1ccc[nH]1 (centres undefined)
4. Nc1nc(Nc2ccccc2SSc2ccccc2Nc2nc(N)nc(-c3cccs3)n2)nc(-c2ccsc2)n1

1: 16.1; 2: 97.1; 3: 104; 4: 4.43
